target: full-length purified human estrogen receptor ERβ (Homo sapiens); construct: full-length purified human estrogen receptors ERα and ERβ; experiment: ERβ competitive radiometric binding assay; details: RBA = IC50[estradiol]/IC50[compound] × 100, estradiol = 100; 2 nM [3H]-estradiol tracer, 18–24 h at 0 °C
Sequence (Q92731 whole entry): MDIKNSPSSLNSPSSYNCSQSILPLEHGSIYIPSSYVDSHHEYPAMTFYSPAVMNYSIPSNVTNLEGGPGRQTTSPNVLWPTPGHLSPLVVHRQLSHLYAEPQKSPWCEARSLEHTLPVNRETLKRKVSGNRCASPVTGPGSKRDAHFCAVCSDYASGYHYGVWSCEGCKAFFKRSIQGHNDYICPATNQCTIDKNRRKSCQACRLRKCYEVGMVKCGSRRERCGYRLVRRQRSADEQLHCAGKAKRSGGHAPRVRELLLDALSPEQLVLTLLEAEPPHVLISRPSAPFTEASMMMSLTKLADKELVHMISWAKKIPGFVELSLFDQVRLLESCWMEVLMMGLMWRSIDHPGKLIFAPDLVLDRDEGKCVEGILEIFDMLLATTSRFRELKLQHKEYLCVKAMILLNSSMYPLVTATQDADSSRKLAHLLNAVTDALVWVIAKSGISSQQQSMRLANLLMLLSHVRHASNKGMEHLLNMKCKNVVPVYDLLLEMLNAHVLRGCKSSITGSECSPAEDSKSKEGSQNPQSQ
Experimental endpoint: RBA ERβ (relative binding affinity)

INSERT INTO results (compound, experimental_endpoint, result_value) VALUES
  ('COc1cc(O)c(CC=C(C)C)c(O)c1C(=O)CCc1ccc(O)cc1 [DXN, α,β-Dihydroxanthohumol]', 'RBA ERβ (relative binding affinity)', '0.009 ± 0.002'),
  ('COc1cc(O)c(CC=C(C)C)c2c1C(=O)CC(c1ccc(O)cc1)O2 (centres unmarked) [IX, Isoxanthohumol, reference compound]', 'RBA ERβ (relative binding affinity)', '0.019 ± 0.004');

Each compound below has a recorded value; state its RBA ERβ (relative binding affinity).
1. CC(C)=CCc1c(O)cc(O)c2c1O[C@H](c1ccc(O)cc1)CC2=O [8-PN, 8-prenylnaringenin, reference compound]
2. COc1cc(O)c(CCC(C)C)c(O)c1C(=O)CCc1ccc(O)cc1 [TXN, tetrahydroxanthohumol]
3. COc1cc(O)c(CC=C(C)C)c(O)c1C(=O)/C=C/c1ccc(O)cc1

1. 2.42 ± 0.62
2. 0.009 ± 0.002
3. 0.003 ± 0.001

====

Target: full-length purified human estrogen receptor ERα (Homo sapiens, UniProt P03372)
Construct: full-length purified human estrogen receptors ERα and ERβ
Sequence (P03372 1-595): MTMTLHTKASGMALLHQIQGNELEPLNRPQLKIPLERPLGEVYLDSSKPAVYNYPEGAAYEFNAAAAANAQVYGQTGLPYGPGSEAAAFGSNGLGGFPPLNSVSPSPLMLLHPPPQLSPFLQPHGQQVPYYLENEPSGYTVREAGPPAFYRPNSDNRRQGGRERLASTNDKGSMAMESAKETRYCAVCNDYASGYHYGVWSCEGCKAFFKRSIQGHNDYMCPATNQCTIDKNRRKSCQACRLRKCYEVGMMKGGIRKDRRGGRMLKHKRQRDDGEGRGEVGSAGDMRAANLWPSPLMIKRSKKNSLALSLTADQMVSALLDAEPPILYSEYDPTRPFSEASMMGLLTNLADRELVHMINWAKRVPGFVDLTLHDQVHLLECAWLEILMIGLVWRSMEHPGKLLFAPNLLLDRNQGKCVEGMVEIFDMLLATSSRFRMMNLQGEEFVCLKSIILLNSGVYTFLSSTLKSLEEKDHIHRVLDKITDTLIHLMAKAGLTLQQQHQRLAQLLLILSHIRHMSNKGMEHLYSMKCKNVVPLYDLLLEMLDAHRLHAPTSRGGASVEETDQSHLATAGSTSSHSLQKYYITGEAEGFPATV
Assay: ERα competitive radiometric binding assay
Settings: RBA = IC50[estradiol]/IC50[compound] × 100, estradiol = 100; 2 nM [3H]-estradiol tracer, 18–24 h at 0 °C
Kindly state RBA ERα (relative binding affinity) for each of the entries shown.
Numbers only.

Use these answered entries as a reference point.
INSERT INTO measurements (compound, target_system, result_value) VALUES
  ('COc1cc(O)c(CC=C(C)C)c(O)c1C(=O)CCc1ccc(O)cc1 [DXN, α,β-Dihydroxanthohumol]', 'full-length purified human estrogen receptor ERα (Homo sapiens, UniProt P03372)', 0.0029),
  ('COc1cc(O)c(CC=C(C)C)c(O)c1C(=O)/C=C/c1ccc(O)cc1 [XN]', 'full-length purified human estrogen receptor ERα (Homo sapiens, UniProt P03372)', 0.0021),
  ('COc1cc(O)c(CC=C(C)C)c2c1C(=O)CC(c1ccc(O)cc1)O2 (centres unmarked) [IX, Isoxanthohumol, reference compound]', 'full-length purified human estrogen receptor ERα (Homo sapiens, UniProt P03372)', 0.0020),
  ('COc1cc(O)c(CCC(C)C)c(O)c1C(=O)CCc1ccc(O)cc1 [TXN, tetrahydroxanthohumol]', 'full-length purified human estrogen receptor ERα (Homo sapiens, UniProt P03372)', 0.0033);

Please tell me: RBA ERα (relative binding affinity) of CC(C)=CCc1c(O)cc(O)c2c1O[C@H](c1ccc(O)cc1)CC2=O [8-PN, 8-prenylnaringenin, reference compound] , system full-length purified human estrogen receptor ERα (Homo sapiens, UniProt P03372)?
0.686

====

assay: LC-MS/MS analysis of XN, DXN and TXN in mouse liver, plasma and muscle; assay type: in vivo; conditions: male, C57BL/6J, mouse, liver; oral dosing at 30 mg/kg/day; read-out: Liver concentration (highest measured)
Experimental endpoint: concentration at 13 weeks (µM)
Give bare numbers, in µM.

Which concentration at 13 weeks reading was recorded for the compound COc1cc(O)c(CCC(C)C)c(O)c1C(=O)CCc1ccc(O)cc1 [TXN, tetrahydroxanthohumol] ?
5
